Molecular target: PRMT5 (Homo sapiens)
Construct: purchased Viva (custom protein)
Assay: PRMT5 IC50 assay with no cofactor
Type: biochemical
Settings: read-out: No Co-factor IC50
Excerpt: Table 1a indicates IC50 values (μM) against PRMT5 for exemplary compounds in the presence of SAM as cofactor, with no cofactor and with MTA as cofactor, respectively (columns 3-5). […] The Ki values can be calculated from the IC50 values as described in the Examples section. As detailed in the Examples section, for the assay performed in the presence of SAM, IC50=Ki×1.5 (Ki=IC50/1.5). For the assay performed in the presence of MTA, IC50=Ki×13.5 (Ki=IC50/13.5). […]
pIC50: −log10 of the molar value.

- molecule: "Cc1c(OCc2cnco2)ccc2c1CCN(C[C@@H](O)CNC(=O)c1cccc(NC3COC3)c1)C2 [Compound 424]"
  pIC50: "≤ 5.30"
- molecule: "O=C(NC[C@H](O)CN1CCc2cc(OCc3cnco3)ccc2C1)c1cc(NC2COC2)nc(N2CCCCC2)n1 [Compound 325]"
  pIC50: "5.30 to 6.30"
- molecule: "Cc1ncoc1COc1ccc2c(c1)CCN(C[C@@H](O)CNC(=O)c1ccnc(NC3CCN(C(=O)C4CC4)CC3)c1)C2 [Compound 624]"
  pIC50: "5.30 to 6.30"
- molecule: "O=C(NC[C@H](O)CN1CCc2c(ccc(OCc3cnco3)c2Cl)C1)c1cc(NC2CCCC2)ncn1 [Compound 336]"
  pIC50: "≤ 5.30"
- molecule: "O=C(NC[C@H](O)CN1CCc2cc(OCc3cnco3)ccc2C1)c1cncc(NC2CCOC2)c1 (some centres unmarked) [Compound 355]"
  pIC50: "≤ 5.30"
- molecule: "COCCN(C)c1nc(NC2COC2)cc(C(=O)NC[C@H](O)CN2CCc3c(ccc(OCc4ocnc4C)c3C)C2)n1 [Compound 398]"
  pIC50: "≤ 5.30"
- molecule: "Cc1ncoc1COc1ccc2c(c1)CCN(C[C@@H](O)CNC(=O)c1cc(NC3COC3)nc(N3CCN(C)CC3)n1)C2 [Compound 387]"
  pIC50: "5.30 to 6.30"
- molecule: "O=C(NC[C@H](O)CN1CCc2cc(OCc3cnco3)ccc2C1)c1cc(NC2CCCCC2)ncn1 [Compound 395]"
  pIC50: "≤ 5.30"
- molecule: "O=C(NC[C@H](O)CN1CCc2c(ccc(OCc3cnco3)c2Cl)C1)c1ccnc(NC2CC(F)(F)C2)c1 [Compound 357]"
  pIC50: "≤ 5.30"
- molecule: "Cc1ncoc1COc1ccc2c(c1I)CCN(C[C@@H](O)CNC(=O)c1ccnc(NC3CCC3)c1)C2 [Compound 268]"
  pIC50: "≤ 5.30"
- molecule: "CC(=O)N1CCN(c2nc(NC3COC3)cc(C(=O)NC[C@H](O)CN3CCc4c(ccc(OCc5cnco5)c4Cl)C3)n2)CC1 [Compound 300]"
  pIC50: "5.30 to 6.30"
- molecule: "O=C(NC[C@H](O)CN1CCc2cc(OCc3cnco3)ccc2C1)c1cc(NC2COC2)nc(N2CCOCC2)n1 [Compound 304]"
  pIC50: "5.30 to 6.30"
- molecule: "CC(=O)N1CC[C@H](Nc2cc(C(=O)NC[C@H](O)CN3CCc4cc(OCc5ocnc5C)ccc4C3)ncn2)C[C@H]1C (mixture of isomers) [Compound 626]"
  pIC50: "5.30 to 6.30"
- molecule: "Cc1ncoc1COc1ccc2c(c1Br)CCN(C[C@@H](O)CNC(=O)c1cc(NC3CCCC3)ncn1)C2 [Compound 358]"
  pIC50: "≤ 5.30"

====

molecular target: PRMT5 (Homo sapiens, UniProt O14744); construct: purchased Viva (custom protein); assay: PRMT5 IC50 assay in the presence of MTA as cofactor; assay type: biochemical; settings: PRMT5, MTA as cofactor
Sequence (O14744 whole entry): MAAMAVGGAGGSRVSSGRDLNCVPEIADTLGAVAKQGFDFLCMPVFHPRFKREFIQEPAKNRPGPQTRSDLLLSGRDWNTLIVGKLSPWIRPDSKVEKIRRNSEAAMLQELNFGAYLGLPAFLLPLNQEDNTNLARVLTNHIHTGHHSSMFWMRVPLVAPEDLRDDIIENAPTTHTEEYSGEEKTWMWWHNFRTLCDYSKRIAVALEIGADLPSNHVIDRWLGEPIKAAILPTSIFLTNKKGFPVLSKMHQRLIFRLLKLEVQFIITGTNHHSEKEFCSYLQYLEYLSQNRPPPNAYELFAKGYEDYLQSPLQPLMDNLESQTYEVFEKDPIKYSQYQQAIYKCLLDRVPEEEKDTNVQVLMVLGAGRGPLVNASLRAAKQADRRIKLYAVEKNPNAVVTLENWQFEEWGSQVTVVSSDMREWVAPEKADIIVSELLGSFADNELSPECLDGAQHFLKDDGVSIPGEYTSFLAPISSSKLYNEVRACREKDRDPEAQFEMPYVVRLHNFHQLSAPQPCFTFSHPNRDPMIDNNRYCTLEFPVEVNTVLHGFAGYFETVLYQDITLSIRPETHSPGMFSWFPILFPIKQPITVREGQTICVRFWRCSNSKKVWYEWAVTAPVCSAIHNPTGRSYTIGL
Sequence (Q9BQA1 whole entry partner): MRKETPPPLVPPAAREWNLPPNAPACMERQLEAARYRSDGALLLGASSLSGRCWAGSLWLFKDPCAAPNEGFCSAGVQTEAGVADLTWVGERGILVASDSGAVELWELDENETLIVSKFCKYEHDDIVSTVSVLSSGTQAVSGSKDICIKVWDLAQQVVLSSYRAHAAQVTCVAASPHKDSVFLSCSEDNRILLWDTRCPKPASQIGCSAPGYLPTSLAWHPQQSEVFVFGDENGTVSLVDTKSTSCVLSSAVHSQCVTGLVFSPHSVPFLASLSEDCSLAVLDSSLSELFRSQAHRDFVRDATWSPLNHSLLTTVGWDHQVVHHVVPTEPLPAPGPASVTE
pIC50: −log10 of the molar value.
pIC50 values by entry
assay metric: pIC50

- smiles input: "Cc1ncoc1COc1ccc2c(c1)CCN(C[C@@H](O)CNC(=O)c1cc(NC3CCC3)ccn1)C2"
  assay system: "PRMT5 (Homo sapiens, UniProt O14744)"
  value: "6.30 to 7.30"
- smiles input: "Cc1c(OCc2cnco2)ccc2c1CCN(C[C@@H](O)CNC(=O)c1ccnc(NC3CC4(CCC4)C3)c1)C2"
  assay system: "PRMT5 (Homo sapiens, UniProt O14744)"
  value: "6.30 to 7.30"
- smiles input: "Cc1c(OCc2cnco2)ccc2c1CCN(C[C@@H](O)CNC(=O)c1cc(N[C@H]3C[C@H](C(=O)N4CCCCC4)C3)ncn1)C2"
  assay system: "PRMT5 (Homo sapiens, UniProt O14744)"
  value: "6.30 to 7.30"
- smiles input: "CC(=O)N1C[C@@H]2[C@H](C1)[C@H]2Nc1cc(C(=O)NC[C@H](O)CN2CCc3cc(OCc4ocnc4C)ccc3C2)ncn1"
  assay system: "PRMT5 (Homo sapiens, UniProt O14744)"
  value: "5.30 to 6.30"
- smiles input: "O=C(NC[C@H](O)CN1CCc2c(ccc(OCc3cnn[nH]3)c2Cl)C1)c1ccnc(NC2CCC2)c1"
  assay system: "PRMT5 (Homo sapiens, UniProt O14744)"
  value: "5.30 to 6.30"
- smiles input: "CC(=O)N1CC(Nc2cc(C(=O)NC[C@H](O)CN3CCc4c(ccc(OCc5cnco5)c4C)C3)ncn2)C1"
  assay system: "PRMT5 (Homo sapiens, UniProt O14744)"
  value: "5.30 to 6.30"
- smiles input: "CC(=O)N1CC(Nc2cc(C(=O)NC[C@H](O)CN3CCc4cc(OCc5cnco5)ccc4C3)nc(C(C)(C)C)n2)C1"
  assay system: "PRMT5 (Homo sapiens, UniProt O14744)"
  value: "6.30 to 7.30"

====

biological target: PRMT5 (Homo sapiens); construct: purchased Viva (custom protein); experiment: PRMT5 IC50 assay with no cofactor; format: biochemical; settings: read-out: No Co-factor IC50

- molecule: "CC(=O)N1CC(Nc2cc(C(=O)NC[C@H](O)CN3CCc4cc(OCc5cnco5)ccc4C3)nc(C(C)C)n2)C1 [Compound 349]"
  IC50: "500 to 5000 nM"
- molecule: "Cn1nccc1COc1ccc2c(c1Cl)CCN(C[C@@H](O)CNC(=O)c1ccnc(NC3CCCC3)c1)C2 [Compound 275]"
  IC50: "≥ 5000 nM"
- molecule: "O[C@@H](CNc1nccc(-c2sccc2Br)n1)CN1CCc2cc(OCc3cnco3)ccc2C1 [Compound 331]"
  IC50: "500 to 5000 nM"
- molecule: "CC(=O)N1CCC(Nc2cc(C(=O)NC[C@H](O)CN3CCc4cc(OCc5ocnc5C)ccc4C3)nc(N3CCCCC3)n2)CC1 [Compound 647]"
  IC50: "50 to 500 nM"

====

target: PRMT5 (Homo sapiens); construct: purchased Viva (custom protein); assay: PRMT5 IC50 assay in the presence of MTA as cofactor; type: biochemical; settings: PRMT5, MTA as cofactor
pIC50: −log10 of the molar value.

- molecule: "CS(=O)(=O)N1CCC(Nc2cc(C(=O)NC[C@H](O)CN3CCc4cc(OCc5cnco5)ccc4C3)ccn2)CC1 [Compound 430]"
  assay system: "PRMT5 (Homo sapiens)"
  pIC50: "6.30 to 7.30"
- molecule: "Cc1c(OCc2ccnn2C)ccc2c1CCN(C[C@@H](O)CNC(=O)c1ccnc(NC3CCCCC3)c1)C2 [Compound 278]"
  assay system: "PRMT5 (Homo sapiens)"
  pIC50: "5.30 to 6.30"
- molecule: "CC(=O)N1CCC(Nc2cc(C(=O)NC[C@H](O)CN3CCc4cc(OCc5ocnc5C)ccc4C3)ncn2)CC1 [Compound 219]"
  assay system: "PRMT5 (Homo sapiens)"
  pIC50: "6.30 to 7.30"
- molecule: "CCC(=O)N1CCN(c2cc(C(=O)NC[C@H](O)CN3CCc4cc(OCc5cnco5)ccc4C3)cc(NC3CCC3)n2)CC1 [Compound 397]"
  assay system: "PRMT5 (Homo sapiens)"
  pIC50: "6.30 to 7.30"
- molecule: "CNC(=O)CN1CCC(Nc2cc(C(=O)NC[C@H](O)CN3CCc4c(ccc(OCc5cnco5)c4C)C3)ncn2)CC1 [Compound 524]"
  assay system: "PRMT5 (Homo sapiens)"
  pIC50: "5.30 to 6.30"
- molecule: "CC(C)C(=O)N1CCN(c2cc(C(=O)NC[C@H](O)CN3CCc4c(ccc(OCc5cnco5)c4Cl)C3)cc(NC3CCC3)n2)CC1 [Compound 466]"
  assay system: "PRMT5 (Homo sapiens)"
  pIC50: "6.30 to 7.30"
- molecule: "Cc1ncoc1COc1ccc2c(c1C)CCN(C[C@@H](O)CNC(=O)c1cc(NC3COC3)nc(N3CCN(C(C)(C)C)CC3)n1)C2 [Compound 435]"
  assay system: "PRMT5 (Homo sapiens)"
  pIC50: "6.30 to 7.30"
